Taken from the supplement of paper PMC9170038.

Tested on: K4 kissing-loop RNA reporter
protocol details: apparent KD of K4 kissing-loop reporter; higher = weaker reporter binding
applied conditions: Eterna round: R107; input ligand: arginine 13.2 mM
Mark 1 for reported apparent KD of K4 kissing-loop reporter of 100 nM or greater; mark -1 for anything smaller.

[
  {
    "chain": "UGACUGGACUGAAGGAGCGUUGAAGGAGCGUAAGUAGUGAUGUUGCUUACAGGUAGGUCGCAGCAGGUAGGUCGCAGUCUAGUCU",
    "assigned class": -1
  },
  {
    "chain": "CGAAGACUUAUGGAUACCAGCCUAGCAUCAGGUGGUUCAGAGGCAUGCAGUGAUGUUGCAGGCCCUUGGCAGCCAUGGUACUAGA [Xelebi]",
    "assigned class": -1
  },
  {
    "chain": "UGACUGGAUGGAAGGAGCGCUAAACUCCUAGUGAUGUUAGGGACACGAGACAAAGUCUUGAAGCAGGUAGGUCGCCAUCUAGUCU [FiskerMod 9 - Jieux - Same State - Arginine B]",
    "assigned class": 1
  },
  {
    "chain": "UGACUGGACUGAAGGAGCGUUCAGGUAGGUCGCUAAGGAGUGAUGUUCCAUAGAAGGAGCGAACAGGUAGGUCGCAGUCUAGUCU [ArgBS 29 #DoubleAptamer #SwitchBubble]",
    "assigned class": 1
  },
  {
    "chain": "GCAGCUCGGGAGUGAUGUUCUCGUAGAGGAAAGGAUAUGUACUUAGACAGAAGGUUCGCAAUUUGCGGUCUUAAGAUAGAAUAAC [theeternabot_sameState_KL_FMN_A_40]",
    "assigned class": 1
  },
  {
    "chain": "AAUUCUUAUCUUAGUAGAUUUCUAAUUAAACGAGGACCGGUACGGCCGCCACUCGGUUAUGAGUGAUGUUCAUGGAAUUACAUAA [JR_SSTryptoA_Sub018]",
    "assigned class": 1
  }
]

---

Tested on: K4 kissing-loop RNA reporter;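 also: bound reporter read as fluorescence of individual clusters on recovered sequencing chips by microscopy, with normalized cluster intensities fitted with a binding model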
protocol details: apparent KD of K4 kissing-loop reporter; higher = weaker reporter binding
applied conditions: Eterna round: R107; input ligand: arginine 13.2 mM
Known apparent KD of K4 kissing-loop reporter of a selection of sequences
observable: apparent KD of K4 kissing-loop reporter (nM)

[
  {
    "chain": "AGUGAUGUUUCUUUUAAGAGUGAUGUUUUUCGAGGACCGGUACGGCCGCCACUCGAGUGAUGAGUGCGUUGUUGUGAUGUUUAGU [#12 K4 Tryptophan A Exclusion]",
    "observable": "apparent KD of K4 kissing-loop reporter",
    "observed result": 313
  },
  {
    "chain": "AUGCAGUGAUGUUGCUUUGUAUAAACAGAUACCAGUGAAUUUUAACACCCUUGGCAGCUGAUAGAUUCUUAAUUCUAUUAUAUAA [JR_SSTheophyA_Sub020]",
    "observable": "apparent KD of K4 kissing-loop reporter",
    "observed result": 189
  },
  {
    "chain": "CGUUUAUAGCAGGAUACCAGUACCCAUAAAGUACGUUAAUAGUAGAGUGAUGUUCUAAAGUACCCUUGGCAGCUUCCCGUGACUG [ExTheophylB.U]",
    "observable": "apparent KD of K4 kissing-loop reporter",
    "observed result": 116
  },
  {
    "chain": "AAUCUCGUCCUGGAUACCAGUCGCACGGUUUGUCAUGUCAGCCAGUGAUGUUGCCUGCAUGACCCUUGGCAGCCAUUCUAUGAAU [theeternabot_exclusion_KL_Theo_B_45]",
    "observable": "apparent KD of K4 kissing-loop reporter",
    "observed result": 230
  },
  {
    "chain": "AAUGUGCAGGGAAGGAGCGUAGUCCAGUGAUGUUGGAGUUAAAUACCAGUGAUGUUGGUUAUACAGGUAGGUCGCCCUAAAGCGC [Exclusion Arginine B Gf 5]",
    "observable": "apparent KD of K4 kissing-loop reporter",
    "observed result": 67.7
  },
  {
    "chain": "UGGGUGUAGUGAUGUUAUAUAGAGAGUGAUACCAGUUUAGAGAGGAACCCUUGGCAGCAUAGAAGAGUAUCAUUGGAGGAGGAGG [ExTheophyl.Aw]",
    "observable": "apparent KD of K4 kissing-loop reporter",
    "observed result": 505
  },
  {
    "chain": "CGUUUAUAGCAGGAUACCAGUACCCAUAAAGUACGUUAAUAGUAGAGUGAUGUUCUAAAGUACCCUUGGCAGCUUCCCGUGACCG [ExTheophylB.V]",
    "observable": "apparent KD of K4 kissing-loop reporter",
    "observed result": 158
  },
  {
    "chain": "UCCUAGGCUCGAAAGAGCCUAGGAUUUACUCAGGAUAUCCGGAAACGGAGAAGGGAGUGACUAGUGAUGUUAGGGACUCCCUAUU",
    "observable": "apparent KD of K4 kissing-loop reporter",
    "observed result": 81.7
  },
  {
    "chain": "AAUGAUGAUUGACACAUUUACUAAAAGGAAGGAGCGGCGAUGUGGCCAGGUAGGUCGCCUUUUAGCAGUGAUGUUGCUAUAUGUU [JR_Nu_ExcArginiA_Sub026]",
    "observable": "apparent KD of K4 kissing-loop reporter",
    "observed result": 108
  },
  {
    "chain": "AAGGGCUAGGCGGCCGCCACUGGUUGUGAACACAUACGAGCCAGUGAUGUUGGUAUUGUGUGCGGCAGGACCGGGCCUAGCCGAA [Exclusion - Tryptophan B (Freestyle 23)]",
    "observable": "apparent KD of K4 kissing-loop reporter",
    "observed result": 299
  },
  {
    "chain": "GCAUCCUAGUCGGCCGCCACUAACAUGAGUGAUGUUCAUGUACGUCAGUGAUGUUGACGUAGUUAUAGGACCGGGACUAGGAUGC [KL-SSTryp-B7 Brourdwalk3]",
    "observable": "apparent KD of K4 kissing-loop reporter",
    "observed result": 119
  },
  {
    "chain": "UCGAUGGCCAGCGAUACCAGCCCAGUGAUGUUGGGCACAUGGUUGCGGGAAAUCCCAUUGGGCCCUUGGCAGCGCUUGCAUAGGU [Cezaat]",
    "observable": "apparent KD of K4 kissing-loop reporter",
    "observed result": 155
  },
  {
    "chain": "CCAUCGCUAUUCGAUACCAGUCAUAAAAUCUUUGGUUAAAUAAAGGAGUGAUGUUCCCAAGACCCUUGGCAGCGAAUAGUGAUGG [Theophylline B K4 7]",
    "observable": "apparent KD of K4 kissing-loop reporter",
    "observed result": 227
  },
  {
    "chain": "GUACGCUGCUGAGUGAUGUUCAGCAAUCGCUAGGAUAUCGCUUUUGCGAGAAGGAGCGCAAUGAGGAAACUCGUUGUUAGUGUAC [FMN A 28]",
    "observable": "apparent KD of K4 kissing-loop reporter",
    "observed result": 198
  },
  {
    "chain": "CACCCAGUCCUCGAUACCAGACUGGCACGUCAAAAGGUCCAGUGAUGUUGAGCCUAACAAGUCCCUUGGCAGCGACCAGUGUAUU [theeternabot_exclusion_KL_Theo_B_30]",
    "observable": "apparent KD of K4 kissing-loop reporter",
    "observed result": 573
  },
  {
    "chain": "UAAUGGUAAGUGAUGUUUACCUGGAACGAUACCAGUCGCCAUGAGGACCCUUGGCAGCGUCACACAGCCUUCUAGUUGUGGUCUU [theeternabot_sameState_KL_Theo_A_46]",
    "observable": "apparent KD of K4 kissing-loop reporter",
    "observed result": 298
  },
  {
    "chain": "GGGAGUAUUGCGGCCGCCACUGAGGAAGAAGAAGGCCAUAGUGAUGUUAUGGAGGAAAGGAAGAACAGGACCGGGCAGUAGAUUU [#22 K4 Tryptophan B Same State]",
    "observable": "apparent KD of K4 kissing-loop reporter",
    "observed result": 157
  },
  {
    "chain": "GUGCAGUGAUGUUGCACGAGGAAAGACGAUACCAGCCGUAAAUAAGGCCCUUGGCAGCGUGGGCUAGCAUAAAGCAUGCUAGUCU [Edbemavela]",
    "observable": "apparent KD of K4 kissing-loop reporter",
    "observed result": 97.7
  },
  {
    "chain": "AGGAUGUAGUGAUGUUAUAUAAGAAGUAAACGAGGACCGGUACGGCCGCCACUCGAAGCGGCUACUAGCGCGCGCGCGCGCGCGC [ExTryptoA.Ca]",
    "observable": "apparent KD of K4 kissing-loop reporter",
    "observed result": 345
  },
  {
    "chain": "GGGAUAGGAUCAGUGAUGUUGGUCCCAGAUACCAGACAAAGUCACGUCCCUUGGCAGCUGAUGAUCGCUGACGACCGGCCUCCAA [theeternabot_sameState_KL_Theo_A_7]",
    "observable": "apparent KD of K4 kissing-loop reporter",
    "observed result": 218
  },
  {
    "chain": "UCGGACCCUGGAGGAUAUGAGUCGAGUGAUGUUCGGCGGUCCAUGCCGAUGCGGCGUUAUGCCCUUUUAGAAGGCCAGGGUCCGA [#2 Exclusion - FMN B Attempt #10 (HarryS)]",
    "observable": "apparent KD of K4 kissing-loop reporter",
    "observed result": 216
  },
  {
    "chain": "GCCGUAGAUGGAAGGAGCGUGGUAGACUGUUGAAGUGAUGUUUCAACUCAUUAAGCCCAACCACAGGUAGGUCGCCAUCUACGGC",
    "observable": "apparent KD of K4 kissing-loop reporter",
    "observed result": 107
  },
  {
    "chain": "AACUGUCAAGGACAACAUUACUGCAGUGAUACCAGCAUCGAAAGAUGCCCUUGGCAGCACCAACUUGCAGUGAUGUUGCAAGUAA [BrourdMod 5 - Jieux - Exclusion - Theophylline A]",
    "observable": "apparent KD of K4 kissing-loop reporter",
    "observed result": 203
  }
]
